target: Gag-Pol polyprotein [600-1027,Y787L]/[600-1155,Y787L] (Human immunodeficiency virus 1, UniProt P03366, Y787L); construct: 600-1027; 600-1155; experiment: HIV-1 RT Assay; conditions: pH 7.8; 22 °C
Result type: IC50 (nM)

CCN1c2ncccc2C(=O)N(C)c2ccc(-c3cc[nH]c3)nc21; 100
